Record form. Attribute: protein stability index. Fill in for each entry.
Experiment: protein stability index of a GFP-peptide fusion (yeast GPS) (PSI 1-4); higher = more stable; sorted into four equal gates, so the index is relative within each strain
Details: ubr1∆
Give bare numbers.

// known answers, use as guide
> print(dat)
             sequence.entry  measured
1  FKKTLRSRISSPHGLIN [SRB4]      2.15
2  ETATSERNASEVRDATL [GRR1]      3.52
3  LSLTAFTKNEEKLLKEL [ITC1]      2.44

The following sequences each have a reported value; give each one's protein stability index.
1. QARTATLKYICAECSSK [RPC10]
2. EAVKQAAKIIYLAHEDN [PRE10]
3. YTVNVVDVFAMPQSGTG [RPN11]
4. RTPHEIQEANSVDMSAL [RIP1]

2.79
2.55
3.07
3.24

List the reported protein stability index of each sequence below.
1. IIDEIITQMRVNDEEEH [RPC82]
2. TQLDDLQHELMISIIKL [YML103C/NUP188]
3. EGLDLLKLCVQELEKRM [PRE1]
4. YSKAAEPHAVSLAWSAD [ASC1]
5. HPFGHALVAGIERYPLK [RPL27A]
6. ESYNQNDWKLETERLIS [SIN4]

1: 2.19; 2: 2.51; 3: 2.06; 4: 2.72; 5: 2.49; 6: 3.15

Reported protein stability index of NALDKLRNNLNSLIEEI [YCG1] : 3.08

* * *

Field: protein stability index. Provide a value for each of the sequences that follow.
Assay: protein stability index of a GFP-peptide fusion (yeast GPS) (PSI 1-4); higher = more stable; sorted into four equal gates, so the index is relative within each strain
Conditions: pdr5∆
Answers are plain numbers.

Some entries whose results are on file:
> print(dat)
                     sequence.entry  measured
1  RTLNIQPEVAVKAAINF [YIL149C/MLP2]      2.15
2          NQFKRIDTLLYLMTYPQ [RET1]      1.44
3          LSLTAFTKNEEKLLKEL [ITC1]      2.29
4          YKKPTGGIVTVRSEMGE [FAS1]      1.69
5          NRKRIVTLRKSLYTNTS [RPL3]      2.27

Provide protein stability index values for the following items, in order.
1. TASVEKAEFSKEMTLQK [YIL149C/MLP2]
2. HIHDLEKFSPKSFISKL [SRP54]
3. GRTGNGNMGITTEMLDK [MED6]
4. FLYVLIPAGIYWYWWKN [QCR8]
5. EDETLRRIKEAEENLKK [YIL149C/MLP2]

[3.44, 2.12, 3.23, 1.33, 3.54]

Provide each entry's protein stability index from the list below.
1. RQTGPAKINEVYNNSKD [NSL1]
2. TKLIGVLILLHAERDLA [SRP68]

3.06
2.26

Parameter requested: protein stability index. Apply to each item below.
1. DWESDLHIHLNQILQTE [YDL116W/NUP84]
2. MNECIADQDMEDEDMVD [ESC2]

1: 3.07; 2: 3.35

* * *

Record form. Attribute: protein stability index. Fill in for each entry.
Test: protein stability index of a GFP-peptide fusion (yeast GPS) (PSI 1-4); higher = more stable; sorted into four equal gates, so the index is relative within each strain
Details: ubr1∆
Give bare numbers.

// below: answered sequences
> print(dat)
             sequence.entry  measured
1  IEQFAMRRNSKILNIIK [POP5]      3.23
2  NGQEQQGPVKNTQLHGP [RGR1]       3.1

List protein stability index for every entry below, keeping the order given.
1. QEEFVQFLQLDNDGFSF [ECM29]
2. LDDDSIVNHEQDLPKIN [SRB4]
3. DVLTLENIQEGTSLTIQ [CDC53]
4. QVVGPFHTSFSAVVGPN [SMC4]
5. ADEPVKASLLLHVLVAH [FAS2]
6. DGTAKEVGDEADNTKDK [MED4]

[2.41, 2.81, 3.14, 2.73, 1.43, 3.22]

Items follow; give protein stability index for each.
1. VHSSSPSTSSNMDVGNP [GAL11]
2. LSSHSSTNSNSKPSTAS [RPN4]
3. LKTDGVRAVSITSFGFG [FAS2]
4. KEKIEKLSKSATESIKN [SMC1]
5. GLSAREAVKQAAKIIYL [PRE10]
6. SAGDDGKVRLWKATYSN [YGL100W/SEH1]
7. EVGNRKHYLEDKLKVYK [SNF5]

1: 3.14; 2: 2.86; 3: 1.41; 4: 3.07; 5: 2.52; 6: 3; 7: 3.06

* * *

Assay: protein stability index of a GFP-peptide fusion (yeast GPS) (PSI 1-4); higher = more stable; sorted into four equal gates, so the index is relative within each strain
Conditions: san1∆
MEASUREMENT_KIND: protein stability index
Answers are plain numbers.

Use the examples below as a reference point.
> print(dat)
                       sequence.entry         measurement.kind  measured
1          KYNRYEKRHKNVPVHVS [RPS11A]  protein stability index      1.69
2            VPVRSFKGHSHIVQDCT [ASC1]  protein stability index      2.91
3            IKRTDEGGEAEFIFGTY [ARP7]  protein stability index      3.37
4            GLESLLNIGLGAVGLKD [YCS4]  protein stability index      2.89
5  FELSFTGAPPYYYNTKI [YMR129W/POM152]  protein stability index      2.66

List the reported protein stability index of each sequence below.
1. ALAEGHGDAAVLLVEKY [NAS6]
2. INQEKPVKLDENSANST [SIR4]
3. LVKTKELIKNYITARIM [FAS1]
4. DHDDSTDDADDHINWEH [NSL1]
5. TTARAKARAKKTKKEKG [RPN2]
6. SNRLHPPDIHPNLGPQL [GRR1]

3.04
3.51
3.02
3.26
3.16
3.01

* * *

Assay: protein stability index of a GFP-peptide fusion (yeast GPS) (PSI 1-4); higher = more stable; sorted into four equal gates, so the index is relative within each strain
Conditions: ubr1∆
What protein stability index was measured for each of the following?
One number for each entry.

Here is how some sequences turned out for protein stability index.
> print(dat)
                     sequence.entry  measured
1  RLLPNGSNKAQISIIDI [YML031W/NDC1]      2.92
2  RSDGMGNVLLNATVVDS [YLR335W/NUP2]      3.15

Each sequence below has a reported value. Please supply its protein stability index.
1. KLCYVLGVEDITLIDSA [RET1]
2. DDDDDDDDEVDYSEIQR [DSN1]
3. TEDQKVTTNINWRSFNA [SRP68]
4. MEETEQKKIQINKEMGE [SMC3]
5. ELENFLDNFETKTEALL [YJL041W/NSP1]

[1.74, 3.16, 3.21, 2.49, 1.81]

* * *

Test: protein stability index of a GFP-peptide fusion (yeast GPS) (PSI 1-4); higher = more stable; sorted into four equal gates, so the index is relative within each strain
Details: ubr1∆
MEASUREMENT_KIND: protein stability index
Numbers only.

Reference set (2 entries):
> print(dat)
               sequence.entry  measured
1  LSAPLSKELRAQYGIKA [RPL26A]      1.87
2    LEFYKDKFFNEVNKSEL [SIR3]      3.43

Please look at the items below and tell me protein stability index for each one, in order.
1. FNTFWDEKGNEIKVGKQ [ARP9]
2. STISAREIQTAVRLILP [HTB1]
3. EETSHLLTVTPGPRLLY [RPN10]
4. NQQAQARQQVAQQLRNQ [GAL11]
5. PTSPSYSPTSPSYSPTS [RPO21]

1: 2.52; 2: 2.38; 3: 3.06; 4: 2.34; 5: 2.85

protein stability index reading for KIRRAARDLLTRDEKDP [RPS9A] : 2.58

* * *

Assay: protein stability index of a GFP-peptide fusion (yeast GPS) (PSI 1-4); higher = more stable; sorted into four equal gates, so the index is relative within each strain
Conditions: doa10∆
Kindly state protein stability index for each of the entries shown.
One number for each entry.

> print(dat)
              sequence.entry  measured
1   ANDEEAYIKLLDQTKDT [SNF2]      2.98
2   RLGEMERDCVIAYGASQ [RET1]      3.24
3  NAIRIGELFLNESWKSS [SRP72]      3.39
4   TNAGYTIELAGGGYFSA [FAS1]      2.39
5   TIVGVKFNNGVVIAADT [PUP1]      1.43

Batch of 6 sequences: report protein stability index for each.
1. SGEDVIIGKTTPISPDE [RPB2]
2. LSVEIGVLTDISSLIGG [NUT1]
3. LTYAQQQLNKQRQDFER [SNF6]
4. EEPAKEEAPAPTPAASA [FAS2]
5. LFSSRRLQAKRLKDVEW [RMP1]
6. SENVFEGLTYKYPARRI [SSN3]

3.26
1.32
2.49
2.75
2.62
3.18

For every listed record, write down its protein stability index.
1. SVGTDPMPIITFLSEWG [RPB2]
2. EQNSSSAKPSQIPTVSS [SIR4]
3. SPSYSPTSPAYSPTSPS [RPO21]
4. DDDISDDEEDEIEENCL [RPN4]

2.7
2.99
2.93
3.48

Below are some sequences; for each one, tell me its protein stability index.
1. GPENALNVYHYFGENSS [YJL039C/NUP192]
2. LMRTFLYTLAQETEGTN [SIR3]
3. KWSKKSMKDRAQHAVIL [RPS25A]
4. VDPVYKDVAKPTGPKTA [FAS2]
5. NYYYLFDKKSFFNGKAL [PRP8]
6. ATNANATTDQEGDIHLE [PRE10]
7. KVPQQAAGKRISHIEKR [SMC1]
8. NIVKQNEGIDLDTYRER [SMC2]

[2.05, 2.63, 2.37, 2.99, 2.55, 3.35, 3.04, 3.13]

Numbers sourced from the supplement of paper PMC9732359.
